# assayed target: KRAS (G12D)/CRAF (Homo sapiens (Human), UniProt P01116, G12D)
# Sequence (P01116-2 other isoform, or with tags, fused parts or gaps G12D): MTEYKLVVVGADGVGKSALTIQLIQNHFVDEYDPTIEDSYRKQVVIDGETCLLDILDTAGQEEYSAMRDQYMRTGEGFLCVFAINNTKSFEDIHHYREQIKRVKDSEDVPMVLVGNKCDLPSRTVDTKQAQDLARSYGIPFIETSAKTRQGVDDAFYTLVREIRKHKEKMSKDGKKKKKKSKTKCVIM
# assay comment: TR-FRET biochemical KRAS:CRAF protein:protein interaction assay, KRAS (G12D)
# test conditions: GMPPNP loaded Biotin-KRAS (G12D), FLAG CRAF RBD; read-out: TR-Fret_PPI KRAS (G12D)/CRAF IC50

>  <item smiles>
[2H]C([2H])(Oc1nc(N2CCOC[C@@H]3[C@@H](Cl)[C@@H]32)c2cnc(-c3cc(N)cc4ccc(F)c(C#C)c34)c(F)c2n1)[C@@]12CCCN1C[C@H](F)C2

>  <measurement unit>
nM

>  <IC50>
648

$$$$
>  <item smiles>
[2H]C([2H])(Oc1nc(N2CCOC[C@H]3C[C@H]32)c2cnc(-c3cc(N)cc4cc(F)c(F)c(C#C)c34)c(F)c2n1)[C@@]12CCCN1C[C@H](F)C2

>  <measurement unit>
nM

>  <IC50>
62.6

$$$$
>  <item smiles>
[2H]C([2H])(Oc1nc(N2CCCC[C@H]3C[C@H]32)c2cnc(-c3cc(N)cc4cc(F)c(F)c(C#C)c34)c(F)c2n1)[C@@]12CCCN1C[C@H](F)C2

>  <measurement unit>
nM

>  <IC50>
27.5

$$$$

Numbers sourced from patent US20250282799A1.
